Target: HLA DRB1*0101 (human)
Settings: modification not given
Assay Metric: IC50 (nM)
A number alone suffices; assume nM.

IN: Give reported IC50 value for AYQQGVTVDSIG [24.2]
OUT: 471
